Biological target: rat TRPV1 (Rattus norvegicus (Rat), UniProt O35433)
Sequence (O35433 whole entry): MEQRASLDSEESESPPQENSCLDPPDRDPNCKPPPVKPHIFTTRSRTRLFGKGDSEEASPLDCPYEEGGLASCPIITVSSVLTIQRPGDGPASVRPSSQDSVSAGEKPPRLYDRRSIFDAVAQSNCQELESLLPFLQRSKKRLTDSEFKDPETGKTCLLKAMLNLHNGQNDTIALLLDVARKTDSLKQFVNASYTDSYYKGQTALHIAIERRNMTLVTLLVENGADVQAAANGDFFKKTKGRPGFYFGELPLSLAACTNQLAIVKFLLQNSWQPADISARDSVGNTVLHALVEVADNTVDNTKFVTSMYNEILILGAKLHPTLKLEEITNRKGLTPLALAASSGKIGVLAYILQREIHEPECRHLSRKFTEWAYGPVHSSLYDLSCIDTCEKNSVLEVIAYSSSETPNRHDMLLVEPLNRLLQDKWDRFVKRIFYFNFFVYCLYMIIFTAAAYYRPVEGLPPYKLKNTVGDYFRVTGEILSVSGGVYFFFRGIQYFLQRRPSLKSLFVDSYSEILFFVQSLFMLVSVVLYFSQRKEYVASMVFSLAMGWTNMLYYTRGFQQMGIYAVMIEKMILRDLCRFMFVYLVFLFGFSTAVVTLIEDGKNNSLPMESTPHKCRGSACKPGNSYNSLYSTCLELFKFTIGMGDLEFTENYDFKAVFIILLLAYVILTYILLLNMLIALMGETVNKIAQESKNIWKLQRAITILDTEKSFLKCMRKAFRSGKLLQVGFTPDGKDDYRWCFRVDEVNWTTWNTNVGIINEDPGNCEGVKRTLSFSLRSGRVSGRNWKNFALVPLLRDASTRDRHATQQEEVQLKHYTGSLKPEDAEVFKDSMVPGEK
Settings: read-out: Rat IC50
Where a name gives a salt, the structure may show the parent alone.
OBSERVABLE: IC50 (nM)
// return numeric value only (unit: nM, not printed)

Some compounds with known IC50 results, for comparison:
INSERT INTO results (compound, observable, endpoint_unit, assay_value) VALUES
  ('CC(C)c1nc2c(c(Nc3ccc(-c4cnco4)cc3)n1)CCN(c1ncccc1C(F)(F)F)CC2 [Example 142]', 'IC50', 'nM', 2090),
  ('COC(=O)c1ccc(Nc2nc(N3CCCCC3)nc3c2CCN(c2ncccc2C(F)(F)F)CC3)cc1 [Example 387]', 'IC50', 'nM', 550),
  ('Cc1ccccc1Nc1nc2c(c(Nc3ccc(C(F)(F)F)cc3)n1)CCN(c1ncccc1C(F)(F)F)CC2 [Example 278, trifluoroacetic acid salt]', 'IC50', 'nM', 670),
  ('CCCCOc1nc2c(c(Nc3ccc(C(F)(F)F)cc3)n1)CCN(c1ncccc1C(F)(F)F)CC2 [Example 343]', 'IC50', 'nM', 60);

Recorded IC50 of FC(F)(F)c1ccc(Nc2nc(-c3ccccc3)nc3c2CCN(c2ncccc2C(F)(F)F)CC3)cc1 [Example 7] , please.
140
